# targetDesc: KRAS-G12D protein (Homo sapiens, UniProt P01116, G12D)
# Sequence (P01116 1-188 isoform P01116-2 G12D): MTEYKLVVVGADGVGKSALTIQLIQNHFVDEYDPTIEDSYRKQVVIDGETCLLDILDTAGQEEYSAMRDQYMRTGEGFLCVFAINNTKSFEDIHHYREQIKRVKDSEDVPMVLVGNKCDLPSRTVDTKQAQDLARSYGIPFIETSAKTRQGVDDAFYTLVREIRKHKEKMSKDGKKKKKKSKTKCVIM
# runDescription: SOS-mediated nucleotide exchange assay (BODIPY-GDP / Tb-streptavidin TR-FRET)
# Assay type: biochemical
*1 amine or outer side, *2 acyl side, *3 side chain or, on linkers, in order; H or OH if unused. Where a SMILES comes first, the peptide text is derived from it. [ ]: non-standard residue; d: D form. Phe(4-guanidino) = N=C(N)Nc1ccc(C[C@H](N)C(=O)O)cc1; Ala(pyrimidin-5-yl) = N[C@@H](Cc1cncnc1)C(=O)O; X27 = Cc1ccc(C[C@H](N[*:1])C(=O)[*:2])cn1; Nle(5,5-F2) = CC(F)(F)CC[C@H](N)C(=O)O; Phe(2-F) = N[C@@H](Cc1ccccc1F)C(=O)O; NMe3Pal = CN[C@@H](Cc1cccnc1)C(=O)O; X1 = O=C(C12CC(CN[*:1])(C1)C2)[*:2]; X53 = C[C@@H](CSCC(=O)[*:2])N[*:1]; Ala(cPr) = N[C@@H](CC1CC1)C(=O)O; NMeF = CN[C@@H](Cc1ccccc1)C(=O)O; PhLac = O=C(O)[C@@H](O)Cc1ccccc1; 3Pal = N[C@@H](Cc1cccnc1)C(=O)O; d3Pal = N[C@H](Cc1cccnc1)C(=O)O; X50 = CC(CCCC(=O)[*:2])N[*:1]; Cba = N[C@@H](CC1CCC1)C(=O)O; NMeA = CN[C@@H](C)C(=O)O; Nle = CCCC[C@H](N)C(=O)O
List of EC50 values.
Provide the reading as a plain figure in nM.

Consider the worked cases shown below.
CCCC[C@@H]1NC(=O)[C@H](Cc2ccc(NC(=N)N)cc2)NC(=O)[C@H](CCCNC(=N)N)NC(=O)[C@H](Cc2ccccc2)NC(=O)CCCC(C)NC(=O)[C@H](Cc2ccccc2)N(C)C(=O)[C@H](CCCC)NC(=O)[C@H](Cc2ccc(OC)cc2)NC1=O (stereo partly drawn) [compound 93] (cyclo(FR[Phe(4-guanidino)][Nle]Y(Me)[Nle][NMeF][X50])): 142
CC(C)CC[C@@H]1NC(=O)[C@H](Cc2ccccc2F)NC(=O)[C@H](CC2CC2)NC(=O)[C@H](Cc2cccnc2)NC(=O)[C@H](C)N(C)C(=O)[C@H](Cc2ccccc2)OC(=O)C23CC(CNC(=O)[C@H](Cc4cccnc4F)N(C)C1=O)(C2)C3 (single isomer, unassigned) [compound 297]: 4
CCCC[C@@H]1NC(=O)[C@H](Cc2ccc(OC)cc2)NC(=O)[C@H](CC2CCC2)NC(=O)[C@@H](Cc2cccnc2)NC(=O)[C@H](CCCNC(=N)N)NC(=O)[C@H](Cc2ccccc2)NC(=O)CSC[C@H](C)NC(=O)[C@H](Cc2ccccc2)N(C)C1=O [compound 180] (cyclo([Cba]Y(Me)[Nle][NMeF][X53]FR[d3Pal])): 37.8
CCCC[C@@H]1NC(=O)[C@H](Cc2cccnc2)NC(=O)[C@H](C)N(C)C(=O)[C@H](Cc2ccc(C)nc2)NC(=O)C23CC(CNC(=O)[C@H](Cc4cccnc4)N(C)C(=O)[C@H](CCCC)NC(=O)[C@H](Cc4ccccc4F)NC1=O)(C2)C3 [compound 164] (cyclo([3Pal][Nle][Phe(2-F)][Nle][NMe3Pal][X1][X27][NMeA])): 2890

Given C[C@H]1C(=O)N[C@@H](Cc2cncnc2)C(=O)N[C@@H](CCC(C)(F)F)C(=O)N[C@@H](Cc2ccccc2F)C(=O)N[C@@H](CCC(C)(F)F)C(=O)N(C)[C@@H](Cc2ccccc2)C(=O)NCC23CC(C2)(C3)C(=O)O[C@@H](Cc2ccccc2)C(=O)N1C [compound 288] (cyclo([NMeA][Ala(pyrimidin-5-yl)][Nle(5,5-F2)][Phe(2-F)][Nle(5,5-F2)][NMeF][X1][PhLac])) , report its EC50 on KRAS-G12D protein (Homo sapiens, UniProt P01116, G12D).
247

Given C[C@H]1C(=O)N[C@@H](Cc2cccnc2)C(=O)N[C@@H](CC2CC2)C(=O)N[C@@H](Cc2ccccc2F)C(=O)N[C@@H](CCC(C)(F)F)C(=O)N(C)[C@@H](Cc2ccccc2)C(=O)NCC23CC(C2)(C3)C(=O)O[C@@H](Cc2ccccc2)C(=O)N1C [compound 289] (cyclo([3Pal][Ala(cPr)][Phe(2-F)][Nle(5,5-F2)][NMeF][X1][PhLac][NMeA])) , report its EC50 on KRAS-G12D protein (Homo sapiens, UniProt P01116, G12D).
9
